Let's look at some molecules and their measured IC50.
assay target: USP25 (USP25-His6, Boston Biochem E-546) (Homo sapiens, UniProt Q9UHP3)
Construct: His6; purchased Boston Biochem E-546
Sequence (Q9UHP3 whole entry): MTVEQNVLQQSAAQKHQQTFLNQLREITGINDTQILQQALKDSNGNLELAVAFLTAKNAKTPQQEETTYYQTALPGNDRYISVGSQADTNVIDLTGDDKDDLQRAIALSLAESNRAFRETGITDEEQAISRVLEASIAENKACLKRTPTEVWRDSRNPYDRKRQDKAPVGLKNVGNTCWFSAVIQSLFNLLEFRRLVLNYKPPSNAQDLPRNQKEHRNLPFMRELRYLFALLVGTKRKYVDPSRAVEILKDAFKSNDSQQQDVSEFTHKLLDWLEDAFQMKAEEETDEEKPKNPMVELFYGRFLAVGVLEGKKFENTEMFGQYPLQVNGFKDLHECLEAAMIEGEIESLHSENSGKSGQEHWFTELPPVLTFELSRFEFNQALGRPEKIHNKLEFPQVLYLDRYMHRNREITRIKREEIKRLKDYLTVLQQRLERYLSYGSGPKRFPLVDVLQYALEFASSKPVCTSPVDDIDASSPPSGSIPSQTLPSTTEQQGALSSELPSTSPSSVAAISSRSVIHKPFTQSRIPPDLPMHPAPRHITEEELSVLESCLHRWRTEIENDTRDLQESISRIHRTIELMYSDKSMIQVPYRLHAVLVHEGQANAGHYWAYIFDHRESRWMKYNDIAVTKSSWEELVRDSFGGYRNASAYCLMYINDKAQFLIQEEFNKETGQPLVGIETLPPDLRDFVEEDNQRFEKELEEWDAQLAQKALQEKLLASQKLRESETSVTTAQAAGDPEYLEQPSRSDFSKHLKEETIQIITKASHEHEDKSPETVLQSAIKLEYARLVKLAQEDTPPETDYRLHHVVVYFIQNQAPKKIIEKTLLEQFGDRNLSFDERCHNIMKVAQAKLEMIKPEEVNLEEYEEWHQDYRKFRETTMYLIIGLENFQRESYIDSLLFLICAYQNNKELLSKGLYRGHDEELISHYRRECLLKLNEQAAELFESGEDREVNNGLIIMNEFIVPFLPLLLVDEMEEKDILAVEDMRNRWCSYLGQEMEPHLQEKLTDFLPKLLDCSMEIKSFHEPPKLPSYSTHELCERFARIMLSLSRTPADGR
protocol description: Ubiquitin-Rhodamine 110 Assay for USP25 Activity, Example A-2
Format: biochemical
measurement setup: Ubiquitin-Rhodamine 110 assay, Example A-2; read-out: USP25 A-2 IC50 range

molecule	IC50
CO[C@@H]1CN(c2ccc3c(c2)OC[C@H](NC(=O)c2sc4nc(C)ccc4c2N)C3)[C@H](C)[C@H]1N	200 to 2000 nM
CO[C@H]1CN(c2cc3c(c(F)c2C#N)C[C@@H](NC(=O)c2sc4nc(C)ccc4c2N)CO3)C[C@@H]1N	50 to 200 nM
Cc1ccc2c(N)c(C(=O)N[C@H]3COc4cc(N5CCC[C@H]6CNC[C@H]65)ccc4C3)sc2n1	1 to 50 nM
Cc1ccc2c(N)c(C(=O)N[C@H]3COc4cc(N5CC[C@H]6CNCC[C@H]65)ccc4C3)sc2n1	50 to 200 nM
N#Cc1c(N2CC3CCC(C2)N3)cc(F)c2c1OC[C@H](NC(=O)c1cnc3c(c1)[C@@H]1C[C@@H]1CN3)C2	200 to 2000 nM
Cc1ccc2c(N)c(C(=O)N[C@H]3COc4cc([C@H]5C[C@@H](N)C5)ccc4C3)sc2n1	200 to 2000 nM
CCn1ccc2cc(C(=O)N[C@H]3CCc4cc(N5CC6CCC(C5)N6)ccc4C3)nnc21 (single isomer, unassigned)	> 2000 nM
Cc1ccc2c(N)c(C(=O)N[C@H]3COc4cc(N5C[C@@H]6CCNC[C@@H]65)ccc4C3)sc2n1 (single isomer, unassigned)	50 to 200 nM
CN[C@H]1CN(c2ccc3c(n2)CC[C@H](NC(=O)c2sc4nc(C)cc(C)c4c2N)C3)C[C@@H]1OC	> 2000 nM
COC[C@@H]1CN(c2ccc3c(c2)CC[C@H](NC(=O)c2sc4nc(C)ccc4c2N)C3)C[C@@H]1N	200 to 2000 nM
O=C(N[C@@H]1CCc2c(c(F)cc(N3CC4CCC(C3)N4)c2C(F)F)C1)c1cnc2c(c1)[C@H]1C[C@H]1CN2 (single isomer, unassigned)	200 to 2000 nM
CN[C@H]1CN(c2ccc3c(n2)CC[C@H](NC(=O)c2sc4nc(C)ccc4c2N)C3)C[C@@]1(C)O	> 2000 nM
Cc1ccc2c(N)c(C(=O)N[C@H]3CCc4nc(N5C[C@@H](N)[C@@H](C(F)F)C5)ccc4C3)sc2n1	200 to 2000 nM
Cc1ccc2c(N)c(C(=O)N[C@H]3COc4cc(N5C[C@@H](N)[C@]6(CCCO6)C5)ccc4C3)sc2n1	50 to 200 nM
